system: F2002 cell line; assay: The compound was tested for inhibitory activity against human cytomegalovirus (HCMV) (WFl strain) in plaque reduction assay in flow 2002 cells; format: functional
Give measured PD50 for each item. Keep answers brief.
Just the number please, in µg/mL, no unit attached.

Could you tell me which PD50 is on file for N.Nc1ccn(C2CSC3(COP(=O)(O)OC3)O2)c(=O)n1 (configuration not stated) ?
11

Could you tell me which PD50 is on file for Nc1nc(=O)n(C2CSC3(COP(=O)(O)OC3)O2)cc1Br (configuration not stated) ?
2.5

Could you tell me which PD50 is on file for `Nc1nc2c(ncn2COC(CO)CO)c(=O)[nH]1` ?
0.1

Could you tell me which PD50 is on file for O=c1ccn(C2CSC3(COP(=O)(O)OC3)O2)c(=O)[nH]1 (configuration not stated) ?
2.5

All values here come from ChEMBL document CHEMBL1130439.
